Source listed as patent US20200308290A1.

# targetSystem: T1, human CD25 on cells (human, UniProt P01589 22-272)
# T1 sequence (looked up): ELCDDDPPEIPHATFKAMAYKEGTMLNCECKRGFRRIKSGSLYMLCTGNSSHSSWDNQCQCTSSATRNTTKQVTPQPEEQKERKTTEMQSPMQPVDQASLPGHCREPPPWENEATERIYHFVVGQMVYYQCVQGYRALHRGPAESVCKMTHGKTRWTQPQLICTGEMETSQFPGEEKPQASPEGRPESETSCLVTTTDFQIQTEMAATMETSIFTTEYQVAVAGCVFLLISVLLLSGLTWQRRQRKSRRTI
# testProtocol: cell-based or functional assay
Exercise: for every item that follows, state its recorded Kit225 (fold improvement in inhibition of IL2-induced Kit225 proliferation).

{"columns": ["binder", "endpointResult"],
 "data": [
  ["Variant C34 (antibody, V domains shown, Isotype as printed: G2M3.QL) VH: QVQLVQSGAEVKKPGSSVKVSCKASGYTFTSYRMHWVRQAPGQGLEWMGYIKPSRGYTEYNQKFKDKATITADESTNTAYMELSSLRSEDTAVYYCARGGGVFDYWGQGTLVTVSS VL: DIQMTQSPSTLSASVGDRVTITCSASSKISYMHWYQQKPGKAPKLLIYTTSDLASGVPARFSGSGSGTEFTLTISSLQPDDFATYYCHQRSTYPLTFGQGTKVEVK", "3.1 fold"]
]}

Look up Kit225 (fold improvement in inhibition of IL2-induced Kit225 proliferation) for the entries below, preserving their order.
1. Variant C41 (antibody, name in Kabat numbering, V domains shown, Isotype as printed: G2M3.QL) VH: QVQLVQSGAEVKKPGSSVKVSCKASGYTFTSYRMHWVRQAPGQGLEWMGYISPRSGYTEYNQKFKDKATITADESTNTAYMELSSLRSEDTAVYYCARGGGVFDYWGQGTLVTVSS VL: DIQMTQSPSTLSASVGDRVTITCSASSSISYMHWYQQKPGKAPKLLIYTTSNLASGVPARFSGSGSGTEFTLTISSLQPDDFATYYCHQRSTYPLTFGQGTKVEVK
2. Variant C35 (antibody, name in Kabat numbering, V domains shown, Isotype as printed: G2M3.QL) VH: QVQLVQSGAEVKKPGSSVKVSCKASGYTFTSYRMHWVRQAPGQGLEWMGYIKPSRGYTEYNQKFKDKATITADESTNTAYMELSSLRSEDTAVYYCARGGGVFDYWGQGTLVTVSS VL: DIQMTQSPSTLSASVGDRVTITCSASSSISYMHWYQQKPGKAPKLLIYTTSELASGVPARFSGSGSGTEFTLTISSLQPDDFATYYCHQRSTYPLTFGQGTKVEVK
3. Variant C28 (antibody, V domains shown, Isotype as printed: G2M3.QL) VH: QVQLVQSGAEVKKPGSSVKVSCKASGYTFTSYRMHWVRQAPGQGLEWMGYINPSSGYTEYNQKFKDKATITADESTNTAYMELSSLRSEDTAVYYCARGGGVFDYWGQGTLVTVSS VL: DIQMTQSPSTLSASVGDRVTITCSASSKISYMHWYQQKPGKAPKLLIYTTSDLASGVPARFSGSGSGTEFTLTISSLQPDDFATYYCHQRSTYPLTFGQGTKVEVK

["2.5 fold", "3 fold", "2.8 fold"]
